# Experimental target: human MET ECD mutant D (mutations 1, 2) (human) (UniProt P08581)
# Protocol summary: ELISA, WT or mutant hMET ECD coated
Reported values of % binding (EMAX) vs WT MET ECD for individual entries

>  <Binder>
71C3 chimeric llama-human IgG1 mAb (antibody, V domains shown, human IgG1 CH1-CH2-CH3 and human CL lambda) VH: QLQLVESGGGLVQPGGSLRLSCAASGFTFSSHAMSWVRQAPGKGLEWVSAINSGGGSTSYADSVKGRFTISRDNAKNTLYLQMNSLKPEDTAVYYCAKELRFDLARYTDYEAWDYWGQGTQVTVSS VL: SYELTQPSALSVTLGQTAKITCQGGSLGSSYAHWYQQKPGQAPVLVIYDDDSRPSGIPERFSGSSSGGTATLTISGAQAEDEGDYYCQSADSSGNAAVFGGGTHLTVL

>  <Output unit>
%

>  <% binding (EMAX) vs WT MET ECD>
102

$$$$
>  <Binder>
71D4 chimeric llama-human IgG1 mAb (antibody, V domains shown, human IgG1 CH1-CH2-CH3 and human CL lambda) VH: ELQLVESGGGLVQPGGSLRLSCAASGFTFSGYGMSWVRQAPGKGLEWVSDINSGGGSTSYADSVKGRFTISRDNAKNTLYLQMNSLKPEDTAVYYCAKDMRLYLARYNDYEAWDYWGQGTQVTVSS VL: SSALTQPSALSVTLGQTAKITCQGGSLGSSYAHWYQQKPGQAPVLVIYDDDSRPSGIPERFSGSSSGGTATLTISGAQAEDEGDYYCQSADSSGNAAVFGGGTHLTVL

>  <Output unit>
%

>  <% binding (EMAX) vs WT MET ECD>
120

$$$$
>  <Binder>
71G2 chimeric llama-human IgG1 mAb (antibody, V domains shown, human IgG1 CH1-CH2-CH3 and human CL lambda; also called 71G2 Human IgG1/lambda) VH: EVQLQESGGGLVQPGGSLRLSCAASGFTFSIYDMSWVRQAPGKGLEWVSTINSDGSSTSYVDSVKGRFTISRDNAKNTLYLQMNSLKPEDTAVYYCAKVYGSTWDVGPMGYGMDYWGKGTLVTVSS VL: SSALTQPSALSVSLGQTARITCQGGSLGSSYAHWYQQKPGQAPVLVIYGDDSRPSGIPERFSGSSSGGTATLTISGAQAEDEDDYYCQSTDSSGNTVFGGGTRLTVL

>  <Output unit>
%

>  <% binding (EMAX) vs WT MET ECD>
114

$$$$
>  <Binder>
71D6 chimeric llama-human IgG1 mAb (antibody, V domains shown, human IgG1 CH1-CH2-CH3 and human CL lambda; also called 71D6 Human IgG1/lambda) VH: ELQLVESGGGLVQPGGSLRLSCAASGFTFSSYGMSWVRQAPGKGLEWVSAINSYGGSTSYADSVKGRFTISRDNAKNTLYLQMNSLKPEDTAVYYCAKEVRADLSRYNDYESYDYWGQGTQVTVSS VL: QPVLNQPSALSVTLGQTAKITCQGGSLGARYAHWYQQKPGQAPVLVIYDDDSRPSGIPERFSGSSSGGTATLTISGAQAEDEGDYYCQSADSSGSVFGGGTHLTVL

>  <Output unit>
%

>  <% binding (EMAX) vs WT MET ECD>
128

$$$$
>  <Binder>
71A3 chimeric llama-human IgG1 mAb (antibody, V domains shown, human IgG1 CH1-CH2-CH3 and human CL lambda) VH: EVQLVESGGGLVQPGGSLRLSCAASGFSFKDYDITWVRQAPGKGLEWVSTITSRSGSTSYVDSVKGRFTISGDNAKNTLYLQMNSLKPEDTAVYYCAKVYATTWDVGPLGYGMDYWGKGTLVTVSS VL: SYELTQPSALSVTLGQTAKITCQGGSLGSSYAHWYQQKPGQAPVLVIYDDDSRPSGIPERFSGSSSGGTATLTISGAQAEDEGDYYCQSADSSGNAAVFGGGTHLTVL

>  <Output unit>
%

>  <% binding (EMAX) vs WT MET ECD>
128

$$$$
